- MEASUREMENT PROTOCOL: Pharmacokinetics of TH302 in Beagle Dogs (Table 6)
- Type: in vivo
- STUDY CONDITIONS: male, dog, plasma, intravenous, Males, 8 mg/kg
ENDPOINT NAME: Cmax
The answer should read as a number with its unit following.

Look at this compound and give its reported Cmax. Cn1c(COP(=O)(NCCBr)NCCBr)cnc1[N+](=O)[O-] [TH302]
6350 ng/mL

* * *

- MEASUREMENT PROTOCOL: Pharmacokinetics of TH302 in Beagle Dogs (Table 6)
- Type: in vivo
- STUDY CONDITIONS: female, dog, plasma, intravenous, Females, 16 mg/kg, read-out: T½ (converted)
ENDPOINT NAME: half-life (min)
The figure you give is taken to be in min; do not add the unit.

Look at this compound and give its reported half-life. Cn1c(COP(=O)(NCCBr)NCCBr)cnc1[N+](=O)[O-]
16.7

* * *

- MEASUREMENT PROTOCOL: Pharmacokinetics in Sprague-Dawley rats (single dose i.v. and p.o.)
- Assay type: in vivo, male Sprague-Dawley rats
- STUDY CONDITIONS: male, Sprague-Dawley, rat, plasma, iv, 5 mg/kg, rats, 5 mg/kg i.v. bolus, individual animals; read-out: Vss
ENDPOINT NAME: Vd (L/kg)
The figure you give is taken to be in L/kg; do not add the unit.

Look at this compound and give its reported Vd. Cn1c(COP(=O)(NCCBr)NCCBr)cnc1[N+](=O)[O-]
7.68

* * *

- MEASUREMENT PROTOCOL: Pharmacokinetics of TH302 in Beagle Dogs (Table 6)
- Assay type: in vivo
- STUDY CONDITIONS: male, dog, plasma, intravenous, Males, 32 mg/kg, read-out: T½ (converted)
ENDPOINT NAME: half-life (min)
The figure you give is taken to be in min; do not add the unit.

Look at this molecule and give its reported half-life. Cn1c(COP(=O)(NCCBr)NCCBr)cnc1[N+](=O)[O-]
14.9

* * *

- MEASUREMENT PROTOCOL: Pharmacokinetics of TH302 in Beagle Dogs (Table 6)
- Format: in vivo
- STUDY CONDITIONS: female, dog, plasma, intravenous, Females, 32 mg/kg
ENDPOINT NAME: Tmax (min)
The figure you give is taken to be in min; do not add the unit.

Look at this compound and give its reported Tmax. Cn1c(COP(=O)(NCCBr)NCCBr)cnc1[N+](=O)[O-]
31

* * *

- MEASUREMENT PROTOCOL: Pharmacokinetics after repeated administration (Q7D×3) to dogs
- Assay type: in vivo
- STUDY CONDITIONS: dog, plasma, intravenous; TH302 in dogs, 16 mg/kg Q7D×3, Day 15; read-out: Vss
ENDPOINT NAME: Vd
The answer should read as a number with its unit following.

Look at this compound and give its reported Vd. Cn1c(COP(=O)(NCCBr)NCCBr)cnc1[N+](=O)[O-] [TH302]
1.93 L/kg

* * *

- MEASUREMENT PROTOCOL: Pharmacokinetics in nude mice
- Assay type: in vivo
- STUDY CONDITIONS: female, mouse, plasma, intravenous, 50 mg/kg, read-out: total body clearance (Cl) (converted)
ENDPOINT NAME: clearance (mL/min/kg)
The figure you give is taken to be in mL/min/kg; do not add the unit.

Look at this compound and give its reported clearance. Cn1c(COP(=O)(NCCBr)NCCBr)cnc1[N+](=O)[O-]
72.8

These data points were gathered from patent US8552048B2.
